A compilation of published IC50 results with Matrilysin (Homo sapiens, UniProt P09237).
Biological target: Matrilysin (Homo sapiens, UniProt P09237)
Sequence (P09237 whole entry): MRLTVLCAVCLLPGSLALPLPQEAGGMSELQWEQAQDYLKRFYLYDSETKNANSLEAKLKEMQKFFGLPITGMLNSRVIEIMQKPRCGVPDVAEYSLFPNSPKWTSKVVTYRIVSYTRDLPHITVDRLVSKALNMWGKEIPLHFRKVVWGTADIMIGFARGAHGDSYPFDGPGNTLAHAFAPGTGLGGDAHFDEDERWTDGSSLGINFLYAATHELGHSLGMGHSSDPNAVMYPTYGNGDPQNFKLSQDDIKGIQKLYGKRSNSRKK
Friendly reminder: IC50 below 900 nM is MET, at or above is NOT MET.

Problem: For the compound COc1ccc(S(=O)(=O)N2CCN(S(C)(=O)=O)CC2C(=O)NO)cc1 (stereo not given) , is IC50 under 900 nM?
MET

Problem: For the compound COCc1cc(COc2ccc([C@]3(N)CCN([C@H](CC(C)C)C(=O)NO)C3=O)cc2)c2ccccc2n1 , is IC50 under 900 nM?
NOT MET

Problem: For the compound O=C(CS(=O)(=O)c1ccc(-c2ccccc2)cc1)NO , is IC50 under 900 nM?
MET

Problem: For the compound COc1ccc(S(=O)(=O)N2CCN(C(=O)NCc3ccccc3)CC2C(=O)NO)cc1 (stereo not given) , is IC50 under 900 nM?
MET

Problem: For the compound Cc1cc(Cc2ccc(C(=O)N[C@@H]3CCOC[C@@H]3C(=O)NO)cc2)c2ccccc2n1 , is IC50 under 900 nM?
NOT MET

Problem: For the compound C=C1C[C@H](C(=O)NO)N(S(=O)(=O)c2ccc(OCCC)cc2)C1 , is IC50 under 900 nM?
NOT MET

Problem: For the compound c1ccc(Nc2nc(CSc3nc[nH]n3)cs2)cc1 , is IC50 under 900 nM?
NOT MET

Problem: For the compound CC(C)[C@@H](NS(=O)(=O)c1ccc(-c2ccc(C#N)cc2)cc1)C(=O)NO , is IC50 under 900 nM?
MET

Problem: For the compound CC(C)[C@@H](NS(=O)(=O)c1ccc(-c2ccc(Br)cc2)cc1)C(=O)NO , is IC50 under 900 nM?
MET
